// data source = ChEMBL document CHEMBL3244117

assay: Induction of erythroid differentiation in DBA/2J mouse Friend erythroleukemia cells assessed as concentration required for maximum proportion of benzidine positive cells after 6 days; assay type: functional, Leukemia cell
Rule: Activity under 9 mM gives criterion not met, otherwise criterion met.

Use these answered entries as a reference point.
{"columns": ["Compound", "Class Assignment"],
 "data": [
  ["CC(=O)NCCc1ccccn1", "criterion met"],
  ["CC(=O)Nc1cccc(=O)[nH]1", "criterion not met"],
  ["CC(=O)Nc1cccnc1", "criterion not met"],
  ["C[S+](C)[O-] [DIMETHYL SULFOXIDE]", "criterion met"],
  ["CC(=O)Nc1ccc(=O)n(C)c1", "criterion not met"]
]}

Ask | Can `[O-][n+]1ccc(-c2ccccc2)cc1` be said to have Activity at or above 9 mM?
Reply | criterion not met

Ask | Can `Oc1ccccn1` be said to have Activity at or above 9 mM?
Reply | criterion not met

Ask | Can `CC(=O)Nc1ccccn1` be said to have Activity at or above 9 mM?
Reply | criterion not met

Ask | Can `CC(=O)Nc1cc(-c2ccccc2)cc[n+]1[O-]` be said to have Activity at or above 9 mM?
Reply | criterion not met

Ask | Can `CC(=O)Nc1cc(-c2ccccc2)ccn1` be said to have Activity at or above 9 mM?
Reply | criterion not met

Ask | Can `CC(=O)Nc1ccc[n+]([O-])c1` be said to have Activity at or above 9 mM?
Reply | criterion met
